test system: lesser grain borer (Rhizopertha dominica); settings: in vivo
Below, each entry is listed with its recorded LC50.

Take a look at these entries with their results.
- Molecule: "CC(C)(O)C#N [DMK-CNOH, dimethyl ketone cyanohydrin]"
  Test system: "lesser grain borer (Rhizopertha dominica)"
  LC50: "0.25 µg/mL"
- Molecule: "CCC(C)C(O)C#N (stereo not shown) [2-methylbutyraldehyde cyanohydrin]"
  Test system: "lesser grain borer (Rhizopertha dominica)"
  LC50: ">20 µg/mL"
- Molecule: "CC(C)C(C)(O)C#N (stereo not shown) [3-methylbutanone cyanohydrin]"
  Test system: "lesser grain borer (Rhizopertha dominica)"
  LC50: ">20 µg/mL"

Exam item: Which LC50 is listed for N#CC1(O)C=CCCC1 (stereo not shown) [2-cyclohexen-1-one cyanohydrin] ?
Marked response: >20 µg/mL

Where these numbers come from: patent US6545043B1
